Test system: MS2 coat protein
procedure details: apparent KD of MS2 coat protein; designed switch direction (-1 OFF switch, 1 ON switch): -1; higher = weaker reporter binding
settings: input ligand: none
# label = yes (1) if apparent KD of MS2 coat protein >= 90 nM else no (0)

[ask] Entry CCCAGUUAGUCAGGAUAUCUUACAUGAGGAUCACCCAUGUAAUAAAUGAGGAUUUCGGGUGUCUAAGAGAAGGGACGGAUAGGC [Ostracism 27 - Jieux - Exclusion NG 2] (Eterna round: R96, puzzle: Exclusion NG 2) : is its apparent KD of MS2 coat protein no less than 90 nM?
[reply] no (0)

[ask] Hi team, for CAGUGACAUGAGGAUCACCCAUGUUAGGAUAUCCGCAAAGGGAGUAGGAUUCCCAUUUGGAGAAGGGACAGGUG [Eternabot (L1) Solution 95] (Eterna round: R97, puzzle: Exclusion 1) , is the recorded apparent KD of MS2 coat protein at or above 90 nM?
[reply] no (0)

[ask] Check the entry UAAAGUAUAUAGGAUAUCUAGCUGGUAACAGCUAGAGAAGGAUGUACAUGAGGAUCACCCAUGUAAAUCAUGAA [Ex6/16-A2] (Eterna round: R97, puzzle: Exclusion 6) : does apparent KD of MS2 coat protein equal or exceed 90 nM?
[reply] no (0)

[ask] Say whether GCCCGGGCAGGAUAUACAAGCUUGAGCUGAAAAGUUCGAGUACAUGAGGAUCACCCAUGUAGAAGGGCCCGGGC [-37.5, -35.6 kcal, A 28% 1 bis] (Eterna round: R97, puzzle: Exclusion 2) shows apparent KD of MS2 coat protein of 90 nM or more.
[reply] no (0)

[ask] Say whether AAGGAUCGAGGAUAUACAUAGAUACAGAUUCAUGUAGAACUACAUGAGGAUCACCCAUGUAGAAGGCGAUCCUA [Mat - Same state - Mayanna Mod - D120] (Eterna round: R96, puzzle: Exclusion 2) shows apparent KD of MS2 coat protein of 90 nM or more.
[reply] no (0)

[ask] Record AGACGGAGAAAAGGAUAUGAGACACUAGACGUCUCAGAAGGUUUAGCCAGUAGCUCCAACAUGAGGAUCACCCAUGUGGUCGUA [Eternabot solution 41] (Eterna round: R96, puzzle: Exclusion NG 1) ; criterion: apparent KD of MS2 coat protein no lower than 90 nM. Met?
[reply] yes (1)

[ask] Decide: is the reported value of apparent KD of MS2 coat protein for AGAAGUAGAAACCGAUCCUACAUGAGGAUCACCCAUGUAGCAAGACGUGCACGCGAAGCUCGUCAGACUACCAGAAG [solution 24] (Eterna round: R96, puzzle: Sensor v2, turn-off variant) equal to or greater than 90 nM?
[reply] yes (1)

[ask] Is it the case that UUUACAAGCUAUAGAUCCCACAUGAGGAUCACCCAUGUUGCUGCCGUGAGGUAGCUUUUAACUAUUGCUCGUCUUAU [JL TOV1 3.36] (Eterna round: R97, puzzle: Sensor, turn-off variant 1) has apparent KD of MS2 coat protein reaching or exceeding 90 nM?
[reply] yes (1)

[ask] Say whether UGUCUCCUCGUCAGGAUAUUUCGUUGUGCAGACUGAAAGAAGGGACAUGAGGAUCACCCAUGUACCUCGUCGGU [Eternabot (L2) Solution 98] (Eterna round: R97, puzzle: Brourd's mod of Exclusion 4) shows apparent KD of MS2 coat protein of 90 nM or more.
[reply] no (0)

[ask] # check: apparent KD of MS2 coat protein of GGAUCGAAUGUGAGGAUAUGCUGGUCCUUGGAUCAGCAGAAGGCACAUGAGGAUCACCCAUGUGAUACCGAUCC [Eli bmx4 4.70] (Eterna round: R97, puzzle: Brourd's mod of Exclusion 4) is greater than or equal to 90 nM
[reply] yes (1)

[ask] Confirm if apparent KD of MS2 coat protein reported for the sequence CGAUCCGUAGAGGAUAUAGGACGUCAUAGCGAUUUAGAAGGCUACACAUGAGGAUCACCCAUGUACAUUUCAUA [Eternabot (L1) Solution 60] (Eterna round: R97, puzzle: Exclusion 6) is 90 nM or above.
[reply] no (0)

[ask] Is it the case that CGCCUGUUAGGAUAUUAGUAGUAGUCAGAAUAGACUAUUACUGAGAAGGGACAUGAGGAUCACCCAUGUUGGCG [Eli x4 4.12] (Eterna round: R97, puzzle: Exclusion 4) has apparent KD of MS2 coat protein reaching or exceeding 90 nM?
[reply] no (0)

[ask] Does the sequence CCCGGGUCUGCAGGAUAUUCGAAAGCAGGUCAAAGGUCACAUGAGGAUCACCCAUGUAGUUUAACGAAGAAGGGUGUCGCCCGU [Eternabot solution 38] (Eterna round: R96, puzzle: Exclusion NG 2) have recorded apparent KD of MS2 coat protein that is 90 nM or more?
[reply] yes (1)

[ask] I'd appreciate it if you could say whether ACAACAAGCUUUUUGUUCGUAGAACAUGAUGCUCUAGUCACAUGAGGAUCACCCAUGUCAGCCAGUUAGAUAGGUGA [JR_SV3TOV2_Sub064] (Eterna round: R96, puzzle: Sensor v3, turn-off variant 2) has apparent KD of MS2 coat protein at least equal to 90 nM.
[reply] no (0)

[ask] Assess whether reported apparent KD of MS2 coat protein for CGACCCAUCAUAGGAUAUCACAGCACGGGAGAAAGUCUGAGGCGUCAACAUGAGGAUCACCCAUGUGAGAAGGAUGGUGGGCAG [Eternabot solution 17] (Eterna round: R96, puzzle: Exclusion NG 2) sits at 90 nM or higher.
[reply] yes (1)

[ask] Is apparent KD of MS2 coat protein for ACAUGAGGAUCACCCAUGUUCGGCUGGUCCGUCUCGGCUGUCGAGGAUAUAGUUCGGUGUCCGCGCUAGAAGGCGGGAGCUGGC [Aenatbe mod 65] (Eterna round: R96, puzzle: Exclusion NG 3) at or above 90 nM?
[reply] no (0)

[ask] Is apparent KD of MS2 coat protein for ACUGGUCGAGGAUAUACAAUCGUGCUUCGGCACGUAAGAUCACAUGAGGAUCACCCAUGUAGAAGGUGACCAGU [E2/1-B2] (Eterna round: R97, puzzle: Exclusion 2) at or above 90 nM?
[reply] no (0)

* * *

Tested on: MS2 coat protein
procedure details: apparent KD of MS2 coat protein; higher = weaker reporter binding
settings: Eterna round: R107; input ligand: theophylline 20 uM
Exercise: for every item that follows, state its recorded apparent KD of MS2 coat protein.
Answer with the number, then the unit.

Entry GAGACAUGAGGAUCACCCAUGUUAGAUGAUACCAGUUAGAGAAGGAGCCCUUGGCAGCGUAAAUCUAGAGCCUAUGACGACAUGU [ss-theoA-1] : apparent KD of MS2 coat protein on MS2 coat protein = 0.0158 µM

MS2 coat protein data for GGAAGCAGGACUGAUACCAGUCCAGCGAAUCAUACGACGCAACAUGAGGAUCACCCAUGUGACCCUUGGCAGCAGACUGCUACCG [Same State Theophylline B GF 27] ; its apparent KD of MS2 coat protein: 0.0372 µM

Observed apparent KD of MS2 coat protein on MS2 coat protein, entry AUACAUGAGGAUCACCCAUGUAUAGUUGAAGGAGCGACCGGUGGGUCAGGUAGGUCGCAGCGCAUGGCGUCCACGCGUGUAUGCC [#1 Exclusion - Arginine A Attempt #30 (Inspired by Pi)] , equals 0.0164 µM

* * *

Tested on: K4 kissing-loop RNA reporter;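 also: bound reporter read as fluorescence of individual clusters on recovered sequencing chips by microscopy, with normalized cluster intensities fitted with a binding model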
procedure details: apparent KD of K4 kissing-loop reporter; higher = weaker reporter binding
settings: Eterna round: R107; input ligand: FMN 200 uM
Can you tell me apparent KD of K4 kissing-loop reporter for the items I'm about to list?
Form entry: enter the amount, then its unit.

apparent KD of K4 kissing-loop reporter for UGUACCGAGUCAGGAUAUGUCGUCGAAAGACGAAAUGGAGUGAUGUUCCUUAAACUGCGAAAGCAGACAGAAGGGAUUUGGUACU [FmnBS 29 U77] is 207 nM

Measured apparent KD of K4 kissing-loop reporter of CGCCGCAACUGAAGGAGCGCGCCAGUGAUGUUGGACGGCUUUGUCAAGGAAACUGCACCGGUGCAGGUAGGUCGCAGUUCGCGGU [Dilea] : 278 nM

Lab note: ACCAUCAAAGAUGGCCUCGACACCGCUGAUACCAGAGUGAAAACACUCCCUUGGCAGCAGGUGAGUGAUGUUCACAGUCGAAGGA [Omel KL Theo A SS B v1] gave apparent KD of K4 kissing-loop reporter of 492 nM

Input AGAGUUAUGAGAGGAUAUGCGGCUAGUACUCAAAGAGUACUAGCAGCGGAGUGAUGUUCUGCGAAAGCAGAAGGUUCAUAACUCA [#08 K4 FMN B Same State] . Output apparent KD of K4 kissing-loop reporter: 214 nM

Form field apparent KD of K4 kissing-loop reporter, entry GUGUGUGAAAACACGCACUUAUAUCCUAGGCAGGAUAUGCGGAAACGCAGAAGGGCCACCGGCGAGAAAAUCCAGUGAUGUUGGA [Ex FMN A 6] : 281 nM

Sure, the documented apparent KD of K4 kissing-loop reporter for UGUUAUGUAUCAGGAUAUUAGUGUUGUUUGUUUAUGUUAGUGAUGUUGAUAUUUGUUUUAUGUAUUUAAGAAGGGAUUGAGAUGU [kkplmullin] is 369 nM
